test: Apparent permeability across basolateral to apical side in MDCK cells; assay type: ADME, cell-based, Canis lupus familiaris; conditions: dog
value_type: Papp

In the examples that follow, each entry is paired with its recorded Papp.
CCOc1ccccc1C(=O)N1CCN(C2CCCC2)C[C@@H]1C(=O)NC[C@@H]1CCCCO1 : 44 10^-6 cm/s
C=CCOc1ccccc1CN(CC(=O)N1CCC(CC(=O)NC2CC2)CC1)C1CCCC1 : 68 10^-6 cm/s
CCOc1ccccc1C(=O)N1CCN(C2CCCC2)C[C@@H]1C(=O)NC[C@H]1CCCCO1 : 50 10^-6 cm/s
C=CCOc1ccccc1CN(CC(=O)N1CCC(CC(=O)NC2CC2)CC1)C1CCN(C)CC1 : 11 10^-6 cm/s

Summary for this compound, `C=CCOc1ccccc1CN(CC(=O)N1CCC(CC(=O)NC2CC2)CC1)Cc1ccccc1` : Papp is 33 10^-6 cm/s

Reference for the values: ChEMBL document CHEMBL6153082
